Target: Epidermal growth factor receptor (Homo sapiens)
Assay: biochemical
Description: Inhibition of C-terminal His-tagged/ N-terminal GST-tagged recombinant human EGFR (668 to 1210 residues) expressed in a Baculovirus infected Sf9 cell expression system using poly-EY as substrate incubated for 30 mins by ADP-Glo kinase assay
pIC50: −log10 of the molar value.
Listed below: pIC50 values for each entry.
measured-quantity: pIC50

- record-smiles: "CC1(C)CC[C@]2(C(=O)OCCCCO[N+](=O)[O-])CC[C@]3(C)C(=CC[C@@H]4[C@@]5(C)CC[C@H](OC(=O)c6ccccc6)C(C)(C)[C@@H]5CC[C@]43C)[C@@H]2C1"
  assay-value: "< 4.70"
- record-smiles: "C=CC(=O)O[C@H]1CC[C@]2(C)[C@H]3CC=C4[C@@H]5CC(C)(C)CC[C@]5(C(=O)OCCCCO[N+](=O)[O-])CC[C@@]4(C)[C@]3(C)CC[C@H]2C1(C)C"
  assay-value: "< 4.70"
- record-smiles: "CC1(C)CC[C@]2(C(=O)OCCCCO[N+](=O)[O-])CC[C@]3(C)C(=CC[C@@H]4[C@@]5(C)CC[C@H](OC(=O)/C=C/c6ccc7c(c6)OCO7)C(C)(C)[C@@H]5CC[C@]43C)[C@@H]2C1"
  assay-value: "< 4.70"

###

Biological target: Epidermal growth factor receptor (Homo sapiens, UniProt P00533, C797S/L858R/T790M)
Sequence (P00533 25-1210 T790M/C797S/L858R limits assumed): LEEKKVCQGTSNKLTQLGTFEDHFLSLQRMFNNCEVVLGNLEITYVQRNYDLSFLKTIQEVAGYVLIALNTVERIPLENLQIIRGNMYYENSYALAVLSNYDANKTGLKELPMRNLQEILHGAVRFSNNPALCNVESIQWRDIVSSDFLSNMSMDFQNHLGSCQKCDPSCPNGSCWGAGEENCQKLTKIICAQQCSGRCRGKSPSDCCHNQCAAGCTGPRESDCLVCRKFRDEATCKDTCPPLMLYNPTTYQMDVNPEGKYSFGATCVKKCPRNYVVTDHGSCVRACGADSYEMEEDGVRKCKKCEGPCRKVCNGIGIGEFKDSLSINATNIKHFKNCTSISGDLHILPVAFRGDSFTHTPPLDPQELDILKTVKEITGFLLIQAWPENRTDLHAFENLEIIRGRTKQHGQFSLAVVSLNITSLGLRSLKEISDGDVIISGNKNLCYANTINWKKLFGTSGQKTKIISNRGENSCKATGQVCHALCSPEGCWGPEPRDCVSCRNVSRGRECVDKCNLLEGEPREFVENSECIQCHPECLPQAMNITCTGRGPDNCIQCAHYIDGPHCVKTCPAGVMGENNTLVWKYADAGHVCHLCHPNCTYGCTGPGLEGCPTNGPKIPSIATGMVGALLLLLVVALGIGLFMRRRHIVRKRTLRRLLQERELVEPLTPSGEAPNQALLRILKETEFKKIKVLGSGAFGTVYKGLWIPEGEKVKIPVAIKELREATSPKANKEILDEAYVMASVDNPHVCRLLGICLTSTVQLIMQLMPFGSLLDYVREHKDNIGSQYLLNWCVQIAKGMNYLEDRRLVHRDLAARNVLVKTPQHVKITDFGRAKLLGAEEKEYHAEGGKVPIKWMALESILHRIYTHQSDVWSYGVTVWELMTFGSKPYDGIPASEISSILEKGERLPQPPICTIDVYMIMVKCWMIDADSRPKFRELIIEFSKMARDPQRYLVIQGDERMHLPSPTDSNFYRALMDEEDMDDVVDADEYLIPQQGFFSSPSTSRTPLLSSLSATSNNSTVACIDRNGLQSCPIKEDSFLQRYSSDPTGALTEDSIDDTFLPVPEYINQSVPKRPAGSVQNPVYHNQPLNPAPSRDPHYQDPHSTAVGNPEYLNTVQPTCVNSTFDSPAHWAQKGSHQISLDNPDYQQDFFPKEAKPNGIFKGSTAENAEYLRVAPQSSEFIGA
Assay: biochemical
pIC50: −log10 of the molar value.
Measured pIC50, listed per entry.
measured-quantity: pIC50

- record-smiles: "CC1(C)CC[C@]2(C(=O)O)CC[C@]3(C)C(=CC[C@@H]4[C@@]5(C)CC[C@H](O)C(C)(C)[C@@H]5CC[C@]43C)[C@@H]2C1"
  assay-value: "< 4.70"
- record-smiles: "CC1(C)CC[C@]2(C(=O)OCCCCO[N+](=O)[O-])CC[C@]3(C)C(=CC[C@@H]4[C@@]5(C)CC[C@H](OC(=O)/C=C/c6ccc7c(c6)OCO7)C(C)(C)[C@@H]5CC[C@]43C)[C@@H]2C1"
  assay-value: "< 4.70"
- record-smiles: "CC1(C)CC[C@]2(C(=O)OCCO[N+](=O)[O-])CC[C@]3(C)C(=CC[C@@H]4[C@@]5(C)CC[C@H](O)C(C)(C)[C@@H]5CC[C@]43C)[C@@H]2C1"
  assay-value: 7.52
- record-smiles: "CC(=O)OC[C@@]1(C)[C@@H]2CC[C@]3(C)[C@H](CC=C4[C@@H]5CC(C)(C)CC[C@]5(C(=O)OCCCCO[N+](=O)[O-])CC[C@]43C)[C@@]2(C)CC[C@@H]1OC(C)=O"
  assay-value: 8.00
- record-smiles: "CC1(C)CC[C@]2(C(=O)OCCCCO[N+](=O)[O-])CC[C@]3(C)C(=CC[C@@H]4[C@@]5(C)CC[C@H](OC(=O)c6ccccc6)C(C)(C)[C@@H]5CC[C@]43C)[C@@H]2C1"
  assay-value: "< 4.70"
- record-smiles: "CC1(C)CC[C@]2(C(=O)O)CC[C@]3(C)C(=CC[C@@H]4[C@@]5(C)CC[C@H](O)[C@@](C)(CO)[C@@H]5CC[C@]43C)[C@@H]2C1"
  assay-value: "< 4.70"

###

Target: Epidermal growth factor receptor (Homo sapiens)
Assay: biochemical
pIC50: −log10 of the molar value.
measured-quantity: pIC50

- record-smiles: "CC1(C)CC[C@]2(C(=O)O)CC[C@]3(C)C(=CC[C@@H]4[C@@]5(C)CC[C@H](O)[C@@](C)(CO)[C@@H]5CC[C@]43C)[C@@H]2C1"
  reading-qualifier: "<"
  assay-value: 4.70
- record-smiles: "CC1(C)CC[C@]2(C(=O)OCCCCO[N+](=O)[O-])CC[C@]3(C)C(=CC[C@@H]4[C@@]5(C)CC[C@H](OCc6ccccc6)C(C)(C)[C@@H]5CC[C@]43C)[C@@H]2C1"
  reading-qualifier: "<"
  assay-value: 4.70
- record-smiles: "CC(=O)OC[C@@]1(C)[C@@H]2CC[C@]3(C)[C@H](CC=C4[C@@H]5CC(C)(C)CC[C@]5(C(=O)OCCCCO[N+](=O)[O-])CC[C@]43C)[C@@]2(C)CC[C@@H]1OC(C)=O"
  reading-qualifier: "="
  assay-value: 7.22
- record-smiles: "CC1(C)CC[C@]2(C(=O)O)CC[C@]3(C)C(=CC[C@@H]4[C@@]5(C)CC[C@H](O)C(C)(C)[C@@H]5CC[C@]43C)[C@@H]2C1"
  reading-qualifier: "<"
  assay-value: 4.70
- record-smiles: "CC(=O)O[C@H]1CC[C@]2(C)[C@H]3CC=C4[C@@H]5CC(C)(C)CC[C@]5(C(=O)OCCCCO[N+](=O)[O-])CC[C@@]4(C)[C@]3(C)CC[C@H]2C1(C)C"
  reading-qualifier: "="
  assay-value: 7.00

Values compiled from ChEMBL document CHEMBL4414650.
